METHOD: solvent given as SMILES
MEASUREMENT SETUP: in CCC#N
1.0 if solvation free energy, 298 K is below -4 kcal/mol. 0.0 if not; exact matches included in 0.0.

Known results for compounds:
# STRUCTURE AS SMILES, LABEL CLASS
records = [
    ("C=CCCCC", 0.0),
    ("CCC1CCCCC1", 1.0),
]

// query State whether -4 kcal/mol exceeds solvation free energy, 298 K recorded for C=CCCCCCC .
// result 1.0

* * *

METHOD: solvent given as SMILES
MEASUREMENT SETUP: in C1COCCO1
METRIC: solvation free energy, 298 K (kcal/mol)
Give your result in kcal/mol as a bare value.

Solved entries (count: 6):
# STRUCTURE AS SMILES, solvation free energy, 298 K [kcal/mol]
data = [
    ("ClC=C(Cl)Cl", -4.91),
    ("CCC1CCCCC1", -4.67),
    ("Clc1c(Cl)c(Cl)c(Cl)c(Cl)c1Cl", -10.8),
    ("ClC(Cl)=C(Cl)Cl", -5.1),
    ("[HH]", 1.76),
    ("O=C(O)c1ccccc1", -9.81),
]

Value of solvation free energy, 298 K reported for the compound C(=Cc1ccccc1)c1ccccc1 is -11.5

The measured solvation free energy, 298 K associated with CCN(CC)CC reads -4.06

The compound CC1CCCCC1 showed solvation free energy, 298 K equal to -4.09

// solvation free energy, 298 K value for ClC(Cl)Cl : -4.64

* * *

METHOD: solvent given as SMILES
MEASUREMENT SETUP: in CCCCCCC
I'd appreciate it if you could label each record using solvation free energy, 298 K and these ranges: lower segment = under -6 kcal/mol, middle segment = from -6 kcal/mol up to -4 kcal/mol, upper segment = -4 kcal/mol and over

Some entries whose results are on file:
# STRUCTURE AS SMILES, LABEL CLASS
rows = [
    ("C=CCCCCCC", "middle segment"),
    ("O=C1c2ccccc2-c2ccccc21", "lower segment"),
    ("C=CC(=C)C", "upper segment"),
    ("O=[N+]([O-])c1ccc(O)cc1", "lower segment"),
    ("CC(C)C", "upper segment"),
    ("c1ccc2c(c1)CCCC2", "lower segment"),
    ("ClC(Cl)Cl", "upper segment"),
    ("O", "upper segment"),
    ("C(=Cc1ccccc1)c1ccccc1", "lower segment"),
    ("Cc1cccc(C)c1", "middle segment"),
]

// query Which of the defined bands does the recorded solvation free energy, 298 K of CCCCC(=O)OC sit within?
// result middle segment

// query Consider N#CCCOCCC#N . To which solvation free energy, 298 K class does it belong?
// result lower segment

// query Class label required: Clc1ccc(Cl)cc1
// result middle segment

// query Which class holds O=[N+]([O-])c1cccc(Cl)c1Cl ?
// result lower segment

// query Kindly identify the class of CC1CCCCC1 .
// result middle segment

// query Which bin, given its solvation free energy, 298 K, does COC(C)(C)C occupy?
// result upper segment

* * *

METHOD: solvent given as SMILES
MEASUREMENT SETUP: in CCCCCCCCO
Under this convention, yes denotes solvation free energy, 298 K strictly below -4 kcal/mol and no denotes solvation free energy, 298 K at or above -4 kcal/mol.

# STRUCTURE AS SMILES, LABEL CLASS
records = [
    ("CCC", "no"),
    ("Clc1c(Cl)c(Cl)c(Cl)c(Cl)c1Cl", "yes"),
    ("CC(C)CCO", "yes"),
    ("OCCCl", "yes"),
    ("FC(F)(F)C(F)(F)Cl", "no"),
]

// query Field: below-cutoff. Rule: recorded solvation free energy, 298 K strictly less than -4 kcal/mol. Subject: C=CC(=C)C
// result no

// query Please let me know if Cc1c(C(=O)O)cc([N+](=O)[O-])cc1[N+](=O)[O-] shows solvation free energy, 298 K below -4 kcal/mol.
// result yes

// query Find out if reported solvation free energy, 298 K for Cc1cccc(C(=O)O)c1 is less than -4 kcal/mol
// result yes

* * *

METHOD: solvent given as SMILES
MEASUREMENT SETUP: in CN1CCCCC1=O
Think of -4 kcal/mol as a floor: if solvation free energy, 298 K stands on it or above, it is True; beneath it, False.

Examples from the recorded data:
# STRUCTURE AS SMILES, LABEL CLASS
records = [
    ("CC1CCCCC1", "True"),
    ("COC(C)(C)C", "True"),
    ("CCOC(C)(C)C", "True"),
    ("C=CCCCC", "True"),
    ("CCCOC(C)=O", "False"),
]

// query Textbook exercise: given the entry CC1CCCC1 , state whether its solvation free energy, 298 K is greater than or equal to -4 kcal/mol.
// result True

// query Could you verify whether the entry ClC(Cl)Cl shows solvation free energy, 298 K of no less than -4 kcal/mol?
// result False

// query Identify whether the reported solvation free energy, 298 K of the following compound is -4 kcal/mol or greater: CCCC(C)=O
// result False

* * *

METHOD: solvent given as SMILES
MEASUREMENT SETUP: in c1ccccc1
METRIC: solvation free energy, 298 K (kJ/mol)
Your answer is read as kJ/mol, so omit the unit and give the number.

# MOLECULE, solvation free energy, 298 K [kJ/mol]
records = [
    ("C1COCCO1", -21.6),
    ("Cc1cccc(C)c1", -25.1),
    ("CCC", -6.74),
    ("O=C(c1ccccc1)C(O)c1ccccc1 (centres undefined)", -65.2),
    ("[HH]", 6.61),
    ("CC(C)C", -8.7),
]

CCC1CCCCC1 yielded solvation free energy, 298 K of -22.4

Entry CCN(CC)CC ; solvation free energy, 298 K = -19.2

Lab note: measured solvation free energy, 298 K of CCCC was -10

* * *

METHOD: solvent given as SMILES
MEASUREMENT SETUP: in O
Rule: Met for solvation free energy, 298 K not less than -3 kcal/mol, Not met for anything less.

Illustrative cases are given below, each with its answer.
# COMPOUND, LABEL CLASS
measured = [
    ("Cc1cc(C)cc(C)c1", "Met"),
    ("c1nc[nH]n1", "Not met"),
    ("CCCCCC(N)=O", "Not met"),
    ("O=C(O)Cc1cccc(Cl)c1", "Not met"),
]

// query Hi team, for NC=O , is the recorded solvation free energy, 298 K at or above -3 kcal/mol?
// result Not met

// query Say whether CSSC shows solvation free energy, 298 K of -3 kcal/mol or more.
// result Met

// query I'd appreciate it if you could say whether C=Cc1ccccc1 has solvation free energy, 298 K at least equal to -3 kcal/mol.
// result Met

// query Entry C=CC1(C)CCC(C(=C)C)CC1C(=C)C (configuration not stated) : is its solvation free energy, 298 K no less than -3 kcal/mol?
// result Met

// query Is it the case that CC(=O)C1CC1 has solvation free energy, 298 K reaching or exceeding -3 kcal/mol?
// result Not met

// query Entry Cc1cccc(C)c1N : is its solvation free energy, 298 K no less than -3 kcal/mol?
// result Not met

* * *

# solvation free energy, 298 K per entry
METHOD: solvent given as SMILES
MEASUREMENT SETUP: in CCCCCCCC(=O)OCC(COC(=O)CCCCCCC)OC(=O)CCCCCCC
Express the result in kJ/mol but write the number alone.

# STRUCTURE AS SMILES, READOUT VALUE
measured = [
    ("CC(F)(F)Cl", -7.7),
    ("CCCl", -10.7),
    ("FC(F)=C(F)C(F)(F)F", -1.72),
]

Entry under test: FC(F)Cl . Its solvation free energy, 298 K was -7.07

Recorded solvation free energy, 298 K (compound FC(F)(Cl)C(F)(F)Cl ): -6.82

Briefly, solvation free energy, 298 K measured for FCC(F)(F)F : -5.06

The compound identified as FC(F)F registered its solvation free energy, 298 K at -1.92

* * *

METHOD: solvent given as SMILES
MEASUREMENT SETUP: in CCN(CC)C(C)=O
Collected solvation free energy, 298 K values appear next to each entry.

Worked cases, answers included:
# STRUCTURE AS SMILES, solvation free energy, 298 K
records = [
    ("COC(C)(C)C", "-3.4 kcal/mol"),
    ("C=CCCCC", "-3.26 kcal/mol"),
    ("CCCC(C)=O", "-4.91 kcal/mol"),
    ("C=CCCCCCC", "-4.5 kcal/mol"),
    ("ClC(Cl)Cl", "-5.18 kcal/mol"),
]

So, CC(C)O ? Its solvation free energy, 298 K was -5.2 kcal/mol

Notebook: CCOC(C)(C)C , solvation free energy, 298 K read as -3.66 kcal/mol
